biological target: P. falciparum apicoplast DNA polymerase (Pf-apPOL) (Plasmodium falciparum, UniProt Q8ILY1); assay: Fluorescence-based high-throughput DNA polymerase assay (molecular beacon), primary screen and dose-response; type: biochemical; conditions: DRC-2; 90'; concentration 40;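 on % inhibition ApPOL 90': test concentration in µM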
Sequence (Q8ILY1 entry or part of it): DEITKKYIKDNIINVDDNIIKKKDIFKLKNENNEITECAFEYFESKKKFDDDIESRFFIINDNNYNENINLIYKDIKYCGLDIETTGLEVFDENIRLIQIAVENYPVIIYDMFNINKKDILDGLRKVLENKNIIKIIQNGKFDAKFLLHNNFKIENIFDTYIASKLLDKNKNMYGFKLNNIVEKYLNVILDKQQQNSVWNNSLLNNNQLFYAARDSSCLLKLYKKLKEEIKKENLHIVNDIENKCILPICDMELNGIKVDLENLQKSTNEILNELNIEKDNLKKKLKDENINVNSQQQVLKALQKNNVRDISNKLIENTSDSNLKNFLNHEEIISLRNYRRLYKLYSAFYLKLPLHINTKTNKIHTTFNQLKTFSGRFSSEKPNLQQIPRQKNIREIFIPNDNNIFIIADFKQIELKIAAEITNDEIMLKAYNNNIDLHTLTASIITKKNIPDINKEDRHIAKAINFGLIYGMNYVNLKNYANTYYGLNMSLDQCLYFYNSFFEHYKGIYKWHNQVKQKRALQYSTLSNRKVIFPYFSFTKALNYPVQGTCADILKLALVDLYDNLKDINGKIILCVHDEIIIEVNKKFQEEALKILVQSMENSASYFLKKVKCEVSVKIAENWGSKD
value type: % inhibition ApPOL 90' (%)
Kindly provide the numeric value in % only, without the unit symbol.

Using the record for CCCCCCCCCCCCCCCCCC(=O)CCN(C)C , report its % inhibition ApPOL 90'.
30

Using the record for CCOc1nc2cccc(C(=O)OC(C)OC(=O)OC3CCCCC3)c2n1Cc1ccc(-c2ccccc2-c2nnn[nH]2)cc1 (centres unmarked) , report its % inhibition ApPOL 90'.
77

Using the record for COc1ccc(C2CC(c3ccc(Cl)cc3Cl)Nc3nc(N)nn32)cc1OC (centres unmarked) , report its % inhibition ApPOL 90'.
50

Using the record for O=C(O)c1nc(-c2ccccc2)nc2c1OCO2 , report its % inhibition ApPOL 90'.
69

Using the record for CCCN1COc2ccc3c(=O)c(-c4ccccc4)coc3c2C1 , report its % inhibition ApPOL 90'.
51

Using the record for CN(C)C1C(c2ccccc2)=C(c2ccccc2)SC(c2ccccc2)C1[N+](=O)[O-] (centres unmarked) , report its % inhibition ApPOL 90'.
62

Using the record for O=C(Nc1c2c(nn1-c1ccccc1)CSC2)c1ccco1 , report its % inhibition ApPOL 90'.
70

Using the record for C=CC1=C(C)c2cc3[nH]c(cc4nc(cc5[nH]c(cc1n2)c(C)c5CCC(=O)O)C(CCC(=O)O)=C4C)c(C)c3C=C , report its % inhibition ApPOL 90'.
75

Using the record for CCCCc1ccc(NC(=O)CSc2nc(O)c(C#N)c(C3CCCCC3)n2)c(C)c1 , report its % inhibition ApPOL 90'.
73

Using the record for C=CCOc1c(Br)cc(Br)cc1/C=C1\SC(=N)NC1=O , report its % inhibition ApPOL 90'.
76

Using the record for Cn1nc(C(=O)N2CCc3c(nc4cc(-c5ccccc5)[nH]n4c3=O)C2)c2ccccc21 , report its % inhibition ApPOL 90'.
55

Using the record for CCOc1ccc2cc(C3=NN(C(=O)CCC(=O)O)C(c4ccc(C)cc4)C3)c(=O)[nH]c2c1 (centres unmarked) , report its % inhibition ApPOL 90'.
73

Using the record for COc1ccc(-c2n[nH]cc2Oc2ccc(Cl)cc2)c(O)c1 , report its % inhibition ApPOL 90'.
71

Using the record for COc1ccc(-c2c(C(F)(F)F)nn3c(=O)cc(-c4cccc([N+](=O)[O-])c4)[nH]c23)cc1 , report its % inhibition ApPOL 90'.
77

Using the record for O=c1nc(/C=C/c2ccc(Br)cc2)oc2ccccc12 , report its % inhibition ApPOL 90'.
79

Using the record for O=C(CSc1nc2ccccc2s1)Nc1ncc([N+](=O)[O-])s1 , report its % inhibition ApPOL 90'.
-14

Using the record for COc1ccc(NC(=O)Cn2ccc3c(=O)[nH]ccc32)cc1 [Molecule 13, COc1ccc(cc1)NC(=O)Cn1ccc2c1cc[nH]c2=O] , report its % inhibition ApPOL 90'.
72

###

target: P. falciparum apicoplast DNA polymerase (Pf-apPOL) (Plasmodium falciparum, UniProt Q8ILY1); experiment: Fluorescence-based high-throughput DNA polymerase assay (molecular beacon), primary screen and dose-response; type: biochemical; conditions: DRC-1; 90'; concentration 2.5
value type: % inhibition Apol 90'
State the value, then name its unit.

Using the record for COc1cccc(C(=O)N2CCc3c(nc4cc(-c5ccccc5)[nH]n4c3=O)C2)c1OC [Molecule 22] , report its % inhibition Apol 90'.
-3%

Using the record for Cc1cccc(CC(=O)N2CCc3c(nc4cc(-c5ccccc5)[nH]n4c3=O)C2)c1 [Molecule 12] , report its % inhibition Apol 90'.
3.59%

Using the record for CC1=NNC(=O)C1Oc1ccc(Cl)cc1Cl (centres unmarked) [KU0265591] , report its % inhibition Apol 90'.
-1.52%

Using the record for CC(=O)Nc1cc(C(=O)NC(C)C)c2ccc(C)nc2c1 [KU0206312] , report its % inhibition Apol 90'.
-3.317%

Using the record for COc1ccc2c(c1)CCc1c-2nc2ccc(Br)cc2c1C(=O)O [KU0059417] , report its % inhibition Apol 90'.
11.1508%

Using the record for O=[N+]([O-])/C=C/c1ccc(-c2ccc(Br)cc2)o1 [Molecule 31, O=N(=O)/C=C/c1ccc(o1)c1ccc(cc1)Br] , report its % inhibition Apol 90'.
4.734%

Using the record for CCOc1ccccc1-c1nc(-c2ccc(=O)[nH]c2)no1 [Molecule 76, CCOc1ccccc1c1onc(n1)c1ccc(=O)[nH]c1] , report its % inhibition Apol 90'.
1.791%

Using the record for Cc1cc(C)c(O)c(/N=C/c2cc([N+](=O)[O-])cc(Br)c2O)c1 [KU0046272] , report its % inhibition Apol 90'.
-6.623%

Using the record for O=C(Nc1nnc(-c2ccno2)o1)c1ccc2c(c1)OCO2 [KU0171343] , report its % inhibition Apol 90'.
-7.247%

Using the record for O=C(Cn1ccc2c(=O)[nH]ccc21)Nc1ccc(Cl)cc1 [Molecule 36, O=C(Cn1ccc2c1cc[nH]c2=O)Nc1ccc(cc1)Cl] , report its % inhibition Apol 90'.
-0.4643%

Using the record for O=C(Nc1ncc([N+](=O)[O-])s1)c1ccc2c(c1)C(=O)N(N1C(=O)c3ccccc3C1=O)C2=O [KU0026378] , report its % inhibition Apol 90'.
0.8654%

Using the record for N#CC(=NNc1cc(C(F)(F)F)cc(C(F)(F)F)c1)C(=O)c1ccco1 [KU0264276] , report its % inhibition Apol 90'.
13.8039%

Using the record for O=C(O)c1cccc(N2N=C(C(F)(F)F)/C(=C/c3ccc(-c4ccccc4[N+](=O)[O-])o3)C2=O)c1 [Molecule 100] , report its % inhibition Apol 90'.
19.5679%

Using the record for Oc1cccc2ccc(/C=C/c3ccc4c(c3)OCO4)nc12 [KU0025984] , report its % inhibition Apol 90'.
-7.534%

Using the record for Cc1ccc(NC(=O)C2CCN(C(=O)c3cc4ccsc4[nH]3)CC2)c(Br)c1 [Molecule 14] , report its % inhibition Apol 90'.
6%

Using the record for COc1ccc(CNC(=O)Cn2nc3c(c2NC(=O)Cc2cccs2)CSC3)cc1 [Molecule 55] , report its % inhibition Apol 90'.
-3.211%

Using the record for O=C1C(=Cc2ccccc2O)Oc2ccc(O)cc21 [KU0196475] , report its % inhibition Apol 90'.
-1.782%
